Cited source for all entries: patent US20240059693A1

// values below are IC50; system is UniProt:P08546
Sequence (P08546 whole entry): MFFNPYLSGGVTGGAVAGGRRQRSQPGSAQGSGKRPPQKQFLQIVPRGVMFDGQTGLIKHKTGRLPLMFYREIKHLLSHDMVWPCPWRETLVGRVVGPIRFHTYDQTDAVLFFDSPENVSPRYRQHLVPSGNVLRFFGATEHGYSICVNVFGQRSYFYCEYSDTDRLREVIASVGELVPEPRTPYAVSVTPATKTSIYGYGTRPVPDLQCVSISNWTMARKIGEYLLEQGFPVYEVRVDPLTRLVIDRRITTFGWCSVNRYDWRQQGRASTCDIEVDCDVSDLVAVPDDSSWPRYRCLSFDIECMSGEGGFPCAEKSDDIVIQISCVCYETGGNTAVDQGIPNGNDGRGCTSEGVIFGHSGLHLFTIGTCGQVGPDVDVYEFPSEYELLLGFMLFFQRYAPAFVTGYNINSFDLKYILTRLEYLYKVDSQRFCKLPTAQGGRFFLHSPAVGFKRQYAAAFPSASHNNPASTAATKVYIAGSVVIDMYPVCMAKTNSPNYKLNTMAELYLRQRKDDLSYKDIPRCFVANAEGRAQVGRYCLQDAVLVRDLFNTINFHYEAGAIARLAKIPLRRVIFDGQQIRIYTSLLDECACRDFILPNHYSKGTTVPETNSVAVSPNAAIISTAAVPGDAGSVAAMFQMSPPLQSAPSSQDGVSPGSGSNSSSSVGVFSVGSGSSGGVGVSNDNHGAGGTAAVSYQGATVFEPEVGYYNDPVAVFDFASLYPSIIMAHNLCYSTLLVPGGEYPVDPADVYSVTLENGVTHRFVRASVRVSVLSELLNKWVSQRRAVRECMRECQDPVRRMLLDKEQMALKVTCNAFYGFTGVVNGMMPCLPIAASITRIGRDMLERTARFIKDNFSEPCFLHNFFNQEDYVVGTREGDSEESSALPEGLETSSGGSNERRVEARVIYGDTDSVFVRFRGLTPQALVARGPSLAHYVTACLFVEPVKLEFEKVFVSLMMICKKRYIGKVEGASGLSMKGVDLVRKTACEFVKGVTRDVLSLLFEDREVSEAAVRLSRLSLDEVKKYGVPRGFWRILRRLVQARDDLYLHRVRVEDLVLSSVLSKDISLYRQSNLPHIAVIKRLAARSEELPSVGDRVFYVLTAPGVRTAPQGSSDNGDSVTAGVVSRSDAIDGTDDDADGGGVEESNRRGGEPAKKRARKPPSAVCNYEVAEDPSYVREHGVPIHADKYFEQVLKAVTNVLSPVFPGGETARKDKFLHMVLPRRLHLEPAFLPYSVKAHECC
Express your answer in nM, writing the number without its unit.

// worked examples, IC50 included
molecule="CC(=O)OCC1c2c(c(C(=O)NCc3ccc(Cl)cc3)nn2C)CN1CC1CCC(=O)N1 (single isomer, unassigned) [Compound 120]" reading=121
molecule="Cn1ccnc1-n1nc(C(=O)NCc2ccc(Cl)cc2)c2c1CN(C[C@H]1CCC(=O)N1)C2 [Compound 20]" reading=115
molecule="CN(CCn1nc(C(=O)NCc2ccc(Cl)cc2)c2c1CN(Cc1ccncc1Cl)C2)C(=O)C1CCC1 [Compound 65]" reading=64.5

Req: Give its IC50 value. Item: CC(C)N1CC(n2nc(C(=O)NCc3ccc(Cl)cc3)c3c2CC(C[C@H]2CCC(=O)N2)C3)C1 (stereo partly drawn) [Compound 134]
Resp: 87.4

Req: Can you check O=C1CC[C@H](CN2Cc3c(C(=O)NCc4ccc(Cl)cc4)nn(-c4ncc[nH]4)c3C2)N1 [Compound 14] next?
Resp: 25.8

Req: Can you check O=C1CC[C@H](CN2Cc3c(C(=O)NCc4ccc(Cl)cc4)nn(C4CCOC4)c3C2)N1 (single isomer, unassigned) [Compound 33] next?
Resp: 52.5

Req: Can you check CC(C)[C@H]1c2c(c(C(=O)NCc3ccc(Cl)cc3)nn2C)CN1C[C@H]1CCC(=O)N1 [Compound 113] next?
Resp: 188

Req: Can you check CC(C1CC(F)C(=O)N1)N1Cc2c(C(=O)NCc3ccc(Cl)cc3)nn(C)c2C1 (stereo not drawn) [Compound 74] next?
Resp: 815

Req: Can you check Cn1nc(C(=O)NCc2ccc(Cl)c(F)c2)c2c1CN(C[C@H]1CCC(=O)N1)C2 [Compound 60] next?
Resp: 143

###

Tested on: VZV
Experiment: Viral qPCR assay, VZV in MRC5 cells
Type: cell-based, varicella zoster virus
Settings: ~72 hrs, read-out: VZV MRC5 Cell (IC50)
Method: MRCS cells, Vero cells, and MeWo cells were obtained from ATCC and were maintained at 37° C./5% CO2/90% relative humidity in Minimal Essential Medium with 10% fetal bovine serum, […] L-glutamine, 100 units/ml penicillin and 100 ug/ml streptomycin. […] 7-point, serial 10-fold dilutions of a plasmid standard were run on each plate to generate a standard curve, and genome copies numbers were calculated by plotting experimental Ct onto linear regression of the standard curve. […]
endpointLabel: IC50 (nM)
Express your answer in nM, writing the number without its unit.

// worked examples, IC50 included
compound=Cn1nc(C(=O)NCc2ccc(Cl)cc2)c2c1C1(CCC1)N(C[C@H]1CCC(=O)N1)C2 endpointlabel=IC50 reading=2160
compound="Cn1nc(C(=O)NCc2ccc(Cl)cc2)c2c1CN(C[C@@H]1CC(F)C(=O)N1)C2 (stereo partly shown)" endpointlabel=IC50 reading=3890
compound="CC(C1CCC(=O)N1)N1Cc2c(C(=O)NCc3ccc(Cl)cc3)nn(C)c2C1 (single isomer, unassigned) [Compound 2]" endpointlabel=IC50 reading=182
compound="Cn1nc(C(=O)NCc2ccc(Cl)cc2)c2c1CC(C[C@H]1CCC(=O)N1)C2 (single isomer, unassigned)" endpointlabel=IC50 reading=371
compound="O=C1CC[C@H](CN2Cc3c(C(=O)NCc4ccc(Cl)cc4)nn(C4CCOC4)c3C2)N1 (single isomer, unassigned) [Compound 33]" endpointlabel=IC50 reading=1960
compound="CC1c2c(c(C(=O)NCc3ccc(Cl)cc3)nn2C)CN1C(C)C1CCC(=O)N1 (stereo not shown) [Compound 112]" endpointlabel=IC50 reading=263

Req: What measured IC50 is associated with O=C1CC[C@@H](CN2Cc3c(C(=O)NCc4ccc(Cl)cc4)nn(C4CCOC4)c3C2)N1 (single isomer, unassigned) on VZV?
Resp: 2370
